Assay: Permeability of the compound at 10 umol/L incubated for 3 hrs by LC/MS/MS detection based PAMPA method
Type: ADME
Conditions: read-out: permeability
endpoint-label: Papp at 3 h, 10 µM (×10⁻⁶ cm/s)

{"compound-string": "Cn1cc(-c2ccc(N(C(=O)NCc3ccccc3)[C@H]3CC[C@H](Nc4ccc(C#N)cn4)CC3)cc2)cn1", "uom": "×10⁻⁶ cm/s", "assay-value": 28.8}
{"compound-string": "Cn1cc(-c2ccc(N(C(=O)NCc3ccccc3)[C@H]3CC[C@H](Nc4ccc(C#N)cn4)CC3)cc2)ccc1=O", "uom": "×10⁻⁶ cm/s", "assay-value": 27.3}
{"compound-string": "Cn1ccc(-c2ccc(N(C(=O)NCc3ccccc3)[C@H]3CC[C@H](Nc4ccc(C#N)cn4)CC3)cc2)cc1=O", "uom": "×10⁻⁶ cm/s", "assay-value": 24.7}
{"compound-string": "N#Cc1ccc(N[C@H]2CC[C@H](N(C(=O)NCc3ccccc3)c3ccc(-c4cccnc4)cc3)CC2)nc1", "uom": "×10⁻⁶ cm/s", "assay-value": 28}

----------
Target: Cyclin-dependent kinase 12 (Homo sapiens)
Sequence (Q9NYV4 whole entry): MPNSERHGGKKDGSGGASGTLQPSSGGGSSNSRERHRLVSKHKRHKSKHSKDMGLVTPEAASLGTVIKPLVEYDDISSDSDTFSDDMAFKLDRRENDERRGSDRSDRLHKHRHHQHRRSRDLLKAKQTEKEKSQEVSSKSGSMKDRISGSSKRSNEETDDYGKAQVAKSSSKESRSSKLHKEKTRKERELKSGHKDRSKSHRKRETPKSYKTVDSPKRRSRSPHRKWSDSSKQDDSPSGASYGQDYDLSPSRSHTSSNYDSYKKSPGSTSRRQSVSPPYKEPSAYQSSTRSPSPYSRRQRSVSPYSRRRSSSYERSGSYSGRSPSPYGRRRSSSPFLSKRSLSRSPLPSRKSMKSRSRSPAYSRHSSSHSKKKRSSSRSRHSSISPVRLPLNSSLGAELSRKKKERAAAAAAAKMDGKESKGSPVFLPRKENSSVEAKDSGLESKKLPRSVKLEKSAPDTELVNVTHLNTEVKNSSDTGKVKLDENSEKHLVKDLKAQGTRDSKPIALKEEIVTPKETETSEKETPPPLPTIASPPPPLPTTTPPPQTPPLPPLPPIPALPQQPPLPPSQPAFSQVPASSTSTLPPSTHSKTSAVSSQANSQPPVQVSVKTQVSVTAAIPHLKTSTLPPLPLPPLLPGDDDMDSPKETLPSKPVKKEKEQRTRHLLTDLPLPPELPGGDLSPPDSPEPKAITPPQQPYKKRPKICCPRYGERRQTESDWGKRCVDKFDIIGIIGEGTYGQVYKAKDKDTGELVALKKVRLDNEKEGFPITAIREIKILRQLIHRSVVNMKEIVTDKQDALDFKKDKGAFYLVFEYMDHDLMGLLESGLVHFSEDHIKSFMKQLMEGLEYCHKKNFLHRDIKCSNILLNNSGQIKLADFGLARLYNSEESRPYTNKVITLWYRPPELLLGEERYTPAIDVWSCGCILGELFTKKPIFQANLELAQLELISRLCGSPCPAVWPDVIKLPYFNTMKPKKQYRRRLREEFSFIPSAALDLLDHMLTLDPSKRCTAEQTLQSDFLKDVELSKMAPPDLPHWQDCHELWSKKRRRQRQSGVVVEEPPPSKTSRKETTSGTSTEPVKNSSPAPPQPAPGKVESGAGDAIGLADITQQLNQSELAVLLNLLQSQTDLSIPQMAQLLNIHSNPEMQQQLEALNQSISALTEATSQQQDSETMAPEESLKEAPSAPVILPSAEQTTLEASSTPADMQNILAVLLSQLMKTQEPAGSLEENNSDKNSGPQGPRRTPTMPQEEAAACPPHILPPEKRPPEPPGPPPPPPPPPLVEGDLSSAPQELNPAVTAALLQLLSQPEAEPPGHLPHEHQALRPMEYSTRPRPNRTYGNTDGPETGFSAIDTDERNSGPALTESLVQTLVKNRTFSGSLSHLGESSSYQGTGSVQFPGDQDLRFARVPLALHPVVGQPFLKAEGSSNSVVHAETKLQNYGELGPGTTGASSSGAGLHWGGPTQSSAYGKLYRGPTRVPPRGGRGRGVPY
Experiment: Inhibition of CDK12 in human SK-BR-3 cells assessed as reduction in RNA polymerase 2 Ser2 phosphorylation incubated for 4 hrs by
endpoint-label: pIC50
Here pIC50 is given on a logarithmic scale as minus log10 of the concentration in mol/L.

# query: pIC50 of entry CC(C)C(=O)OC[C@@H]1O[C@@H](n2cnc(N)c3c(C(N)=O)c(Br)nc2-3)[C@@H](O)[C@@H]1O
6.59

----------
Molecular target: CDK2/Cyclin A2 (Homo sapiens, UniProt P24941)
Assay: Inhibition of GST-tagged human CDK2/CCNA2 (04 to 103 residues) pre-incubated for 5 mins before addition of histone H1 substrate and [gamma-33P]ATP and measured after 20 mins by radiometric assay
endpoint-label: IC50 (nM)

Worked examples follow.
{"compound-string": "Cn1cc(-c2ccc(N([C@H]3CC[C@H](Nc4ccc(C#N)cn4)CC3)S(C)(=O)=O)cc2)cn1", "uom": "nM", "IC50": 31}
{"compound-string": "Cn1cc(-c2ccc(S(=O)(=O)N3CCC(Nc4ccc(C(F)(F)F)cn4)CC3)cc2)cn1", "uom": "nM", "IC50": 5.8}

(I) Cn1cc(-c2ccc(S(=O)(=O)N3CCC(Nc4cc(C#N)ccn4)CC3)cc2)cn1
(II) Cn1cc(-c2ccc(N(C(=O)OCc3ccccc3)[C@H]3CC[C@H](Nc4ccc(C#N)cn4)CC3)cc2)cn1
(III) CC(=O)N(c1ccc(-c2cnn(C)c2)cc1)[C@H]1CC[C@H](Nc2ccc(C#N)cn2)CC1
hey, can you rank those compounds up there by IC50? biggest number first please Enter labels, ranked according to the request.
II, III, I
(II: 2500 nM, III: 470 nM, I: 32 nM)

----------
Biological target: CDK12/Cyclin K (Homo sapiens)
Sequence (O75909 whole entry, one chain of several, the tested form may be a part): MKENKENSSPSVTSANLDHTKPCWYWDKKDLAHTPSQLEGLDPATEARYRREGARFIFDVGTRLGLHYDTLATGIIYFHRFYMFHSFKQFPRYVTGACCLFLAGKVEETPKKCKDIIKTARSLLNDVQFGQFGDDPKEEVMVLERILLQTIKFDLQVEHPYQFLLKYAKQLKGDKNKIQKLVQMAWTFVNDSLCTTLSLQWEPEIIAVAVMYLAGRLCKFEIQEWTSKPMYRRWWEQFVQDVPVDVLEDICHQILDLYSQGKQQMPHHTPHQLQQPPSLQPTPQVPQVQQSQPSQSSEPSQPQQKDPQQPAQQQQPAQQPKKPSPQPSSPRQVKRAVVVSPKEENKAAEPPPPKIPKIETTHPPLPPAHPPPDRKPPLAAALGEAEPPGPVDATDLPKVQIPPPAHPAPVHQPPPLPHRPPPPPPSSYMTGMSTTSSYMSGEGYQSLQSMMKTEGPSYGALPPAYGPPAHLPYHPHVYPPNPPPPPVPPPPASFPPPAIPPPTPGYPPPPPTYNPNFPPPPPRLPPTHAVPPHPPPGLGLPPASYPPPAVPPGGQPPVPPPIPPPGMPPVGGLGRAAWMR
Assay: Inhibition of N-terminal FLAG-tagged human full-length CDK12 (1 to 1490 residues)/N-terminal His-tagged CycK (1 to 580 residues) expressed in Sf9 cells assessed as reduction in ATP-dependent ULight-4E-BP1 (Thr37/Thr46) substrate peptide phosphorylation pre-incubated for 60 mins by LANCE Ultra assay
pIC50: −log10 of the molar value.
endpoint-label: pIC50

Reference set, count: 6
{"compound-string": "N#Cc1ccc(N[C@H]2CC[C@H](N(C(=O)NCc3ccccc3)c3ccccc3)CC2)nc1", "pIC50": 7.20}
{"compound-string": "Cn1ccc(-c2ccc(N(C(=O)NCc3ccccc3)[C@H]3CC[C@H](Nc4ccc(C#N)cn4)CC3)cc2)cc1=O", "pIC50": 7.36}
{"compound-string": "Cn1cc(-c2ccc(S(=O)(=O)N3CCC(Nc4ccc(C(F)(F)F)cn4)CC3)cc2)cn1", "pIC50": 5.74}
{"compound-string": "COC(=O)N(c1ccc(-c2cnn(C)c2)cc1)[C@H]1CC[C@H](Nc2ccc(C#N)cn2)CC1", "pIC50": 6.70}
{"compound-string": "CC(=O)N(c1ccc(-c2cnn(C)c2)cc1)[C@H]1CC[C@H](Nc2ccc(C#N)cn2)CC1", "pIC50": 6.89}
{"compound-string": "CC(C)C(=O)OC[C@@H]1O[C@@H](n2cnc(N)c3c(C(N)=O)c(Br)nc2-3)[C@@H](O)[C@@H]1O", "pIC50": 6.96}

(P) Cn1cc(-c2ccc(N([C@H]3CC[C@H](Nc4ccc(C#N)cn4)CC3)S(C)(=O)=O)cc2)cn1
(Q) Cn1cc(-c2ccc(CN3CCC(Nc4ccc(C#N)cn4)CC3)cc2)cn1
Select the item whose pIC50 value is smaller, choosing between P and Q . Output the label that corresponds to your choice.
Q
(Q: 4.80, P: 6.96)

----------
Biological target: CDK2/Cyclin A2 (Homo sapiens)
Assay: Inhibition of GST-tagged human CDK2/CCNA2 (04 to 103 residues) pre-incubated for 5 mins before addition of histone H1 substrate and [gamma-33P]ATP and measured after 20 mins by radiometric assay
pIC50: −log10 of the molar value.
endpoint-label: pIC50

Some solved entries appear below for comparison.
{"compound-string": "Cn1cc(-c2ccc(S(=O)(=O)N3CCC(Nc4cccc(C#N)n4)CC3)cc2)cn1", "assay-value": 4.34}
{"compound-string": "Cn1cc(-c2ccc(N(C(=O)CCc3ccccc3)[C@H]3CC[C@H](Nc4ccc(C#N)cn4)CC3)cc2)cn1", "assay-value": 5.54}
{"compound-string": "COC(=O)N(c1ccc(-c2cnn(C)c2)cc1)[C@H]1CC[C@H](Nc2ccc(C#N)cn2)CC1", "assay-value": 5.80}

(A) Cn1c(-c2ccc(N(C(=O)NCc3ccccc3)[C@H]3CC[C@H](Nc4ccc(C#N)cn4)CC3)cc2)cccc1=O
(B) CC(=O)N(c1ccc(-c2cnn(C)c2)cc1)[C@H]1CC[C@H](Nc2ncc3ccccc3n2)CC1
Among A and B , which shows a numerically higher pIC50 result? Please respond with the label that marks your chosen entry.
B
(B: 7.62, A: 4.57)

----------
Biological target: CDK2/Cyclin A2 (Homo sapiens, UniProt P24941)
Assay: Inhibition of GST-tagged human CDK2/CCNA2 (04 to 103 residues) pre-incubated for 5 mins before addition of histone H1 substrate and [gamma-33P]ATP and measured after 20 mins by radiometric assay
endpoint-label: IC50 (µM)

Some solved entries appear below for comparison.
{"compound-string": "N#Cc1ccc(N[C@H]2CC[C@H](N(C(=O)NCc3ccccc3)c3ccccc3)CC2)nc1", "uom": "µM", "assay-value": 56}
{"compound-string": "Cn1cc(-c2ccc(N[C@H]3CC[C@H](Nc4ccc(C#N)cn4)CC3)cc2)cn1", "uom": "µM", "assay-value": 9.8}
{"compound-string": "Cn1cc(-c2ccc(S(=O)(=O)N3CCC(Nc4ccccn4)CC3)cc2)cn1", "uom": "µM", "assay-value": 1.2}

(a) Cn1cc(-c2ccc(S(=O)(=O)N3CCC(Nc4ccc(C#N)cn4)CC3)cc2)cn1
(b) CN(c1ccc(C#N)cn1)C1CCN(S(=O)(=O)c2ccc(-c3cnn(C)c3)cc2)CC1
Which value of IC50 is smaller, the one for a or the one for b ? Answer format: the label of the selected item.
a

----------
Reported IC50 values, CDK9/cyclin T1 (Homo sapiens).

These solved cases illustrate the format of a correct answer.
{"compound-string": "N#Cc1ccc(N[C@H]2CC[C@H](N(C(=O)NCc3ccccc3)c3ccccc3)CC2)nc1", "IC50": "> 30 µM"}
{"compound-string": "N#Cc1ccc(N[C@H]2CC[C@H](N(C(=O)NCc3ccccc3)c3ccc(-c4cccnc4)cc3)CC2)nc1", "IC50": "> 30 µM"}
{"compound-string": "Cn1cc(-c2ccc(N(C(=O)NCc3ccccc3)[C@H]3CC[C@H](Nc4ccc(C#N)cn4)CC3)cc2)ccc1=O", "IC50": "16 µM"}
{"compound-string": "Cn1cc(-c2ccc(N(C(=O)NCc3ccccc3)[C@H]3CC[C@@H](Nc4ccc(C#N)cn4)CC3)cc2)cn1", "IC50": "> 30 µM"}
{"compound-string": "Cn1cc(-c2ccc(S(=O)(=O)N3CCC(Nc4ccc(C#N)cn4)CC3)cc2)cn1", "IC50": "> 30 µM"}
{"compound-string": "Cn1cc(-c2ccc(N(C(=O)NCc3ccccc3)[C@H]3CC[C@H](Nc4ccc(C#N)cn4)CC3)cc2)cn1", "IC50": "> 30 µM"}

Need IC50, item CC(C)C(=O)OC[C@@H]1O[C@@H](n2cnc(N)c3c(C(N)=O)c(Br)nc2-3)[C@@H](O)[C@@H]1O
0.22 µM

Record: Cn1c(-c2ccc(N(C(=O)NCc3ccccc3)[C@H]3CC[C@H](Nc4ccc(C#N)cn4)CC3)cc2)cccc1=O
> 30 µM

Also need Cn1cccc(-c2ccc(N(C(=O)NCc3ccccc3)[C@H]3CC[C@H](Nc4ccc(C#N)cn4)CC3)cc2)c1=O , thanks.
15 µM

Then what about the molecule Cn1ccc(-c2ccc(N(C(=O)NCc3ccccc3)[C@H]3CC[C@H](Nc4ccc(C#N)cn4)CC3)cc2)cc1=O ?
> 30 µM
